Data credit: patent US8476265B2

Listed next: entries and their corresponding β2 Intrinsic Activity.
subject-of-test: Adrenergic β2 (Homo sapiens)
Construct: Adherent H292 cells are removed from tissue culture flasks by treatment with Accutase™ cell detachment solution; endogenous in cells; host or cells: H292 cells
protocol-notes: Adrenergic β2 mediated cAMP production in H292 cells (AlphaScreen), concentration response
Assay type: cell-based
condition-details: fraction relative to the maximum activity determined for formoterol
Counter-ions that a name gives are not always drawn.
Give a plain numeric answer without units written out.

Answered cases to consult:
- molecule: "Cc1c(CCOCCC(=O)N(CCNCCc2ccc(O)c3c2OCC(=O)N3)C2CCCC2)cccc1CN1CCC2(CC1)CN(C(=O)c1csc(C(C)C)n1)CCO2 [Example 64, ditrifluoroacetate]"
  β2 Intrinsic Activity: 1.0
- molecule: "Cc1cc(C(=O)N2CCOC3(CCN(Cc4cccc(CCOCCC(=O)N(CCNCCc5ccc(O)c6c5OCC(=O)N6)C5CCCCC5)c4)CC3)C2)sc1C"
  β2 Intrinsic Activity: 1.0
- molecule: "CC(C)c1nc(C(=O)N2CCOC3(CCN(Cc4cccc(CCOCCC(=O)N(CCNCCc5ccc(O)c6c5OCC(=O)N6)CC(F)F)c4F)CC3)C2)cs1 [Example 73, ditrifluoroacetate]"
  β2 Intrinsic Activity: 1.1
- molecule: "CC(C)c1nc(C(=O)N2CCOC3(CCN(CCc4ccc(CCOCCC(=O)N(CCNCCc5ccc(O)c6c5OCC(=O)N6)C5CCCCC5)cc4)CC3)C2)cs1"
  β2 Intrinsic Activity: 0.9
- molecule: "O=C1COc2c(CCNCCN(C(=O)CCOCCc3cccc(CN4CCC5(CC4)CN(C(=O)c4csc(CC(F)(F)F)n4)CCO5)c3)C3CCCCC3)ccc(O)c2N1"
  β2 Intrinsic Activity: 1.0
- molecule: "O=C1COc2c(CCNCCN(C(=O)CCOCCc3cccc(CN4CCC5(CC4)CN(C(=O)c4csc(C6CCCC6)n4)CCO5)c3)C3CCCCC3)ccc(O)c2N1"
  β2 Intrinsic Activity: 1.0
- molecule: "CCCN(CCNCCc1ccc(O)c2[nH]c(=O)sc12)C(=O)CCOCCc1ccc(CCN2CCC3(CC2)CN(C(=O)c2csc(CC)n2)CCO3)cc1 [Example 3, ditrifluoroacetate]"
  β2 Intrinsic Activity: 1.0
- molecule: "CC(C)c1nc(C(=O)N2CCOC3(CCN(Cc4cccc(CCOCCC(=O)N(CCNCCc5ccc(O)c6c5OCC(=O)N6)CCC(F)(F)F)c4F)CC3)C2)cs1 [Example 20, ditrifluoroacetate]"
  β2 Intrinsic Activity: 1.1
- molecule: "CCCCN(CCNCCc1ccc(O)c2c1OCC(=O)N2)C(=O)CCOCCc1ccccc1OCCN1CCC2(CC1)CN(C(=O)c1csc(C(C)C)n1)CCO2 [Example 178, trifluoroacetate salt]"
  β2 Intrinsic Activity: 1.2
- molecule: "CCN(CCNCCc1ccc(O)c2[nH]c(=O)sc12)C(=O)CCOCCc1cccc(CN2CCC3(CC2)CN(C(=O)c2csc(C(C)C)n2)CCO3)c1OC [Example 68, ditrifluoroacetate]"
  β2 Intrinsic Activity: 0.6

Now, please, on to the next molecule.
[in] Looking for the measured β2 Intrinsic Activity of CCC(CC)c1nc(C(=O)N2CCOC3(CCN(Cc4cccc(CCOCCC(=O)N(CCNCCc5ccc(O)c6c5OCC(=O)N6)C5CCCCC5)c4)CC3)C2)cs1 , can you help?
[out] 1.0

###

subject-of-test: Adrenergic β2 (Homo sapiens, UniProt P07550)
Construct: Adherent H292 cells are removed from tissue culture flasks by treatment with Accutase™ cell detachment solution; endogenous in cells; host or cells: H292 cells
Sequence (P07550 whole entry): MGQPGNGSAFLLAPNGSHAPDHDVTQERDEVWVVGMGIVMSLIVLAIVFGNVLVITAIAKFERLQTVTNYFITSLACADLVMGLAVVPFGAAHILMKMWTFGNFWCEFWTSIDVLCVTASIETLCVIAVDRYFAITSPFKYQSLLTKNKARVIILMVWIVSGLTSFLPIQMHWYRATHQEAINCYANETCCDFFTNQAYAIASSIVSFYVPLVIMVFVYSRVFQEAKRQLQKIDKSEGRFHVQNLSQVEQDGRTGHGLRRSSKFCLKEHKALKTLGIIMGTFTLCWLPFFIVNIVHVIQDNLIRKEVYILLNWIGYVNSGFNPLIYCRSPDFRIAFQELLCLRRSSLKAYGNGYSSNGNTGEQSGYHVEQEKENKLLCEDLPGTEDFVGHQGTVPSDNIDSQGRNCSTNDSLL
protocol-notes: Adrenergic β2 mediated cAMP production in H292 cells, single concentration 1 μM
Format: cell-based
condition-details: NCI-H292, 1 μM compound, cAMP as percentage of the maximum response generated by 1E-07M formoterol, read-out: β2 % effect @1 uM
observation-type: percent of formoterol maximum response at 1 µM

- compound: "O=C1COc2c(CCNCCN(C(=O)CCOCCc3cccc(CN4CCC5(CC4)CN(C(=O)c4ccc(-n6cccn6)nc4)CCO5)c3)C3CCCCC3)ccc(O)c2N1 [Example 112]"
  recorded-measurement: "105%"

[in] Looking for the measured percent of formoterol maximum response at 1 µM of CC(C)(C)C(=O)N1CCOC2(CCN(Cc3cccc(CCOCCC(=O)N(CCNCCc4ccc(O)c5c4OCC(=O)N5)C4CCCCC4)c3)CC2)C1 [Example 155] , can you help?
[out] 93%

###

Listed next: entries and their corresponding log10(EC50).
subject-of-test: Adrenergic β2 (Homo sapiens)
Construct: Adherent H292 cells are removed from tissue culture flasks by treatment with Accutase™ cell detachment solution; endogenous in cells; host or cells: H292 cells
protocol-notes: Adrenergic β2 mediated cAMP production in H292 cells (AlphaScreen), concentration response
Assay type: cell-based
condition-details: 60 min, 300 μM rolipram, read-out: β2 pEC50 (converted)
Answers are given as log10 of EC50 in nM.

Answered cases to consult:
- compound: "CCc1ccc(C(=O)N2CCOC3(CCN(Cc4cccc(CCOCCC(=O)N(CCNCCc5ccc(O)c6c5OCC(=O)N6)C5CCCCC5)c4)CC3)C2)s1"
  log10(EC50): 2.40
- compound: "CC(C)c1nc(C(=O)N2CCOC3(CCN(Cc4cccc(CCOCCC(=O)N(CCNCCc5ccc(O)c6c5OCC(=O)N6)CC(F)F)c4F)CC3)C2)cs1 [Example 73, ditrifluoroacetate]"
  log10(EC50): 1.40
- compound: "Cc1nc(C(=O)N2CCOC3(CCN(Cc4cccc(CCOCCC(=O)N(CCNCCc5ccc(O)c6[nH]c(=O)ccc56)C5CCCCC5)c4)CC3)C2)cs1 [Example 42, ditrifluoroacetate]"
  log10(EC50): 2.60
- compound: "Cc1cc(C(=O)N2CCOC3(CCN(Cc4cccc(CCOCCC(=O)N(CCNCCc5ccc(O)c6c5OCC(=O)N6)C5CCCCC5)c4)CC3)C2)sc1C"
  log10(EC50): 2.30

Now, please, on to the next compound.
[in] Looking for the measured log10(EC50) of CCCC[C@@H](C)N(CCNCCc1ccc(O)c2c1OCC(=O)N2)C(=O)CCOCCc1cccc(CCN2CCC3(CC2)CN(C(=O)c2csc(C)n2)CCO3)c1 [Example 38, ditrifluoroacetate] , can you help?
[out] 1.20

###

subject-of-test: Adrenergic β2 (Homo sapiens, UniProt P07550)
Construct: Adherent H292 cells are removed from tissue culture flasks by treatment with Accutase™ cell detachment solution; endogenous in cells; host or cells: H292 cells
protocol-notes: Adrenergic β2 mediated cAMP production in H292 cells (AlphaScreen), concentration response
Type: cell-based
condition-details: 60 min, 300 μM rolipram, read-out: β2 pEC50 (converted)
Counter-ions that a name gives are not always drawn.
Listed next: entries and their corresponding EC50.
Give your result in µM as a bare value.

Answered cases to consult:
- compound: "CC(C)c1cccc(C(=O)N2CCOC3(CCN(Cc4cccc(CCOCCC(=O)N(CCNCCc5ccc(O)c6c5OCC(=O)N6)C5CCCCC5)c4)CC3)C2)n1 [Example 97]"
  subject-of-test: "Adrenergic β2 (Homo sapiens, UniProt P07550)"
  EC50, µM: 0.158
- compound: "CC(C)c1nc(C(=O)N2CCOC3(CCN(Cc4cccc(CCCCOCCC(=O)N(CCNCCc5ccc(O)c6c5OCC(=O)N6)C5CCCCC5)c4)CC3)C2)cs1 [Example 58, ditrifluoroacetate]"
  subject-of-test: "Adrenergic β2 (Homo sapiens, UniProt P07550)"
  EC50, µM: 0.1
- compound: "CC(C)c1nc(C(=O)N2CCOC3(CN(CCc4cccc(CCOCCC(=O)N(CCNCCc5ccc(O)c6c5OCC(=O)N6)C5CCCCC5)c4)C3)C2)cs1 [Example 176, trifluoroacetate salt]"
  subject-of-test: "Adrenergic β2 (Homo sapiens, UniProt P07550)"
  EC50, µM: 0.0158
- compound: "CCN(CCNCCc1ccc(O)c2[nH]c(=O)sc12)C(=O)CCOCCc1cccc(CCN2CCC3(CC2)CN(C(=O)c2csc(C(C)C)n2)CCO3)c1 [Example 35, ditrifluoroacetate]"
  subject-of-test: "Adrenergic β2 (Homo sapiens, UniProt P07550)"
  EC50, µM: 0.00316

[in] Looking for the measured EC50 of Cc1ccccc1CN(CCNCCc1ccc(O)c2c1OCC(=O)N2)C(=O)CCOCCc1cccc(CN2CCC3(CC2)CN(C(=O)c2csc(C(C)C)n2)CCO3)c1F [Example 21] , can you help?
[out] 0.0631

###

subject-of-test: Adrenergic β2 (Homo sapiens, UniProt P07550)
Construct: Adherent H292 cells are removed from tissue culture flasks by treatment with Accutase™ cell detachment solution; endogenous in cells; host or cells: H292 cells
protocol-notes: Adrenergic β2 mediated cAMP production in H292 cells (AlphaScreen), concentration response
Type: cell-based
condition-details: 60 min, 300 μM rolipram, read-out: β2 pEC50 (converted)
The label is class 1 for EC50 below 30 nM and class 0 for EC50 equal to or exceeding 30 nM.

- molecule: "CC(C)c1nc(C(=O)N2CCOC3(CCN(Cc4cccc(CCOCCC(=O)N(CCNCCc5ccc(O)c6c5OCC(=O)N6)[C@H](C)C(C)(C)C)c4F)CC3)C2)cs1 [Example 19, ditrifluoroacetate]"
  group: "class 0"

[in] Here's an entry: CCCCc1nc(C(=O)N2CCOC3(CCN(Cc4cccc(CCOCCC(=O)N(CCNCCc5ccc(O)c6c5OCC(=O)N6)C5CCCCC5)c4)CC3)C2)cs1 . Is its EC50 below 30 nM?
[out] class 0

[in] Same thing, different molecule: CCN(CCNCCc1ccc(O)c2c1OCC(=O)N2)C(=O)CCOCCc1cccc(CN2CCC3(CC2)CN(C(=O)c2csc(CC(C)C)n2)CCO3)c1F [Example 69, ditrifluoroacetate]
[out] class 0

[in] Same thing, different molecule: O=C1COc2c(CCNCCN(C(=O)CCOCCc3cccc(CN4CCC5(CC4)CN(C(=O)c4ccc6occc6c4)CCO5)c3)C3CCCCC3)ccc(O)c2N1
[out] class 0

[in] Same thing, different molecule: CCN(CCNCCc1ccc(O)c2[nH]c(=O)sc12)C(=O)CCOCCc1cccc(CN2CCC3(CC2)CN(C(=O)c2csc(C(C)C)n2)CCO3)c1OC [Example 68, ditrifluoroacetate]
[out] class 1
